// reported Dopamine Km / inhibitor Ki ratio for each item listed
- target: Synaptic vesicular amine transporter (Bos taurus) (UniProt Q27963)
- protocolSummary: Ratio of Km for dopamine uptake at VMAT in bovine chromaffin granule ghosts to Ki for VMAT in bovine chromaffin granule ghosts

INSERT INTO assay_data (compoundstring, target, recordedresult) VALUES
  ('Cc1ccc(-c2cc[n+](C)cc2)cc1', 'Synaptic vesicular amine transporter (Bos taurus) (UniProt Q27963)', 1);

Query :: Given the compound `Cc1ccccc1-c1cc[n+](C)cc1` , what is its reported Dopamine Km / inhibitor Ki ratio?
Result :: 0.3

---

- target: Synaptic vesicular amine transporter (Bos taurus, UniProt Q27963)
- Sequence (Q27963 whole entry): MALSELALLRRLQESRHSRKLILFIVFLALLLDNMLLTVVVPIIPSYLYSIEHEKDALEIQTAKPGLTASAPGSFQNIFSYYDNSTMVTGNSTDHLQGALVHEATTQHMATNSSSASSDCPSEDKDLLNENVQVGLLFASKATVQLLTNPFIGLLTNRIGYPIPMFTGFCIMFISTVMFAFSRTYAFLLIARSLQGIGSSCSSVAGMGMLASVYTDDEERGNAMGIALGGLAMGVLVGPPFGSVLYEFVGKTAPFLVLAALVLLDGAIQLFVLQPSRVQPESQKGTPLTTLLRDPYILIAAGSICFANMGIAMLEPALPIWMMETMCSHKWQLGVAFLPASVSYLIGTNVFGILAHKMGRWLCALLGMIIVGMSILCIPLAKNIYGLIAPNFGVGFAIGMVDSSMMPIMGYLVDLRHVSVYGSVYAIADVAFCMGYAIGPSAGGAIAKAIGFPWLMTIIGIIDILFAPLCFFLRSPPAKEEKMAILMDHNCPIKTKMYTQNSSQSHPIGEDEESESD
- protocolSummary: Inhibition of dopamine uptake at VMAT in bovine chromaffin granule ghosts
measurementName: log10 of Ki (log10 of the value in µM)
A difference of one corresponds to tenfold Ki; all values are log10 with Ki in µM.

INSERT INTO measurements (compound, target, measurementname, recordedresult) VALUES
  ('COc1cc2c(cc1OC)C1CC(=O)C(CC(C)C)CN1CC2 (stereo unspecified)', 'Synaptic vesicular amine transporter (Bos taurus, UniProt Q27963)', 'log10 of Ki', -2.40),
  ('C[n+]1cccc(-c2ccc(O)cc2)c1', 'Synaptic vesicular amine transporter (Bos taurus, UniProt Q27963)', 'log10 of Ki', 2.53),
  ('C=C(C[n+]1ccc(-c2ccc(O)cc2)cc1)c1ccc(Br)cc1', 'Synaptic vesicular amine transporter (Bos taurus, UniProt Q27963)', 'log10 of Ki', -0.30),
  ('C[n+]1ccc(-c2ccc(Cl)cc2)cc1', 'Synaptic vesicular amine transporter (Bos taurus, UniProt Q27963)', 'log10 of Ki', 0.88),
  ('C=C(C[n+]1ccc(-c2ccccc2)cc1)c1ccc(-c2ccccc2)cc1', 'Synaptic vesicular amine transporter (Bos taurus, UniProt Q27963)', 'log10 of Ki', 0.65),
  ('CN1CC=C(c2ccccc2)CC1', 'Synaptic vesicular amine transporter (Bos taurus, UniProt Q27963)', 'log10 of Ki', 1.72);

Query :: Given the compound `CN1CC=C(c2ccccc2N)CC1` , what is its reported log10 of Ki?
Result :: 2.29

Query :: Given the compound `Cc1ccc(-c2cc[n+](C)cc2)cc1` , what is its reported log10 of Ki?
Result :: 1.71

Query :: Given the compound `CN1CC=C(c2ccc(O)cc2)CC1` , what is its reported log10 of Ki?
Result :: 2.13

Query :: Given the compound `C=C(C[n+]1ccc(-c2ccccc2)cc1)c1ccccc1` , what is its reported log10 of Ki?
Result :: 1.58

Query :: Given the compound `C=C(CN1CCN(c2ccccc2)CC1)c1ccccc1` , what is its reported log10 of Ki?
Result :: 0.15

Query :: Given the compound `CN1CC=C(c2ccc(F)cc2)CC1` , what is its reported log10 of Ki?
Result :: 1.70

Query :: Given the compound `C=C(C[n+]1ccc(C2CCCCC2)cc1)c1ccccc1` , what is its reported log10 of Ki?
Result :: 1.72

Query :: Given the compound `C[n+]1ccc(-c2cccc(Cl)c2)cc1` , what is its reported log10 of Ki?
Result :: 1.67
